Assay: In vivo pharmacokinetic experiment in CD-1 female mice
Conditions: mouse, plasma, iv, CD-1 mice, injection 2 mg/kg
value_kind: AUC(0-t) (µg·h/mL)

A: COc1cc(-c2nn(CCN3CCC(N(C)C)CC3)c3ncnc(N)c23)ccc1NC(=O)OC1(C)CC1
B: COc1cc(-c2nn(CCN3CCC(N(C)C)CC3)c3ncnc(N)c23)ccc1NC(=O)OC(C)(C)C [Compound A, reference compound]
Hi team, can someone confirm which has the larger AUC(0-t): A or B ? Thanks. Identify your selection by its label.
B
(B: 0.681 µg·h/mL, A: 0.3 µg·h/mL)

###

Test: In vivo pharmacokinetic experiment in CD-1 female mice
Conditions: mouse, plasma, iv, CD-1 mice, injection 2 mg/kg
Procedure: CD-1 female mice aged 7 to 10 weeks were intravenously administered and orally administered at a dose of 2 mg/kg and 10 mg/kg, respectively. […] The animals were weighed before administration, and the administration volume was calculated according to the body weight. […] The plasma concentrations were processed using a non-compartmental model of Phoenix WinNonlin™ version 8.3 (Certara) pharmacokinetic software, and the pharmacokinetic parameters were calculated using a linear-log trapezoidal method.
value_kind: half-life (h)

molecule=COc1cc(-c2nn(CCN3CCC(N(C)C)CC3)c3ncnc(N)c23)ccc1NC(=O)OC1(C)CC1 reported=5.9
molecule="COc1cc(-c2nn(CCN3CCC(N(C)C)CC3)c3ncnc(N)c23)ccc1NC(=O)OC(C)(C)C [Compound A, reference compound]" reported=6.4

###

Test: In vivo pharmacokinetic experiment in CD-1 female mice
Settings: mouse, plasma, CD-1 mice, oral administration 10 mg/kg
value_kind: Cmax (ng/mL)

1: COc1cc(-c2nn(CCN3CCC(N(C)C)CC3)c3ncnc(N)c23)ccc1NC(=O)OC(C)(C)C [Compound A, reference compound]
2: COc1cc(-c2nn(CCN3CCC(N(C)C)CC3)c3ncnc(N)c23)ccc1NC(=O)OC1(C)CC1
Which value of Cmax is numerically greater: that of 1 or that of 2 ? Returns: label corresponding to the selected item.
1
(1: 211 ng/mL, 2: 88.9 ng/mL)

###

Test: In vivo pharmacokinetic experiment in CD-1 female mice
Conditions: mouse, plasma, iv, CD-1 mice, injection 2 mg/kg, read-out: Vdss
value_kind: Vd (L/kg)

a: COc1cc(-c2nn(CCN3CCC(N(C)C)CC3)c3ncnc(N)c23)ccc1NC(=O)OC(C)(C)C [Compound A, reference compound]
b: COc1cc(-c2nn(CCN3CCC(N(C)C)CC3)c3ncnc(N)c23)ccc1NC(=O)OC1(C)CC1 [Compound 59]
Of a and b , whose reported Vd is numerically smaller? # respond with the chosen item's label
a
(a: 15.2 L/kg, b: 35.6 L/kg)

###

System: PC3 cells
Assay: In vitro anti-proliferative activity against PC3 cells (agarose, 7 days)
Type: cell-based
Conditions: Homo sapiens, PC-3, 168 h, 7 days of incubation
pIC50: −log10 of the molar value.
value_kind: pIC50

For orientation, consider the following solved cases.
compound="CC(C)(C)OC(=O)Nc1ccc(-c2nn(CCN3CCC(N4CCCC4)CC3)c3ncnc(N)c23)c2c1OCO2 [Compound 37]" reported=7.93
compound="CN(C)C1CCN(CCn2nc(-c3ccc(NC(=O)OC4(C)CCC4)c4c3OCO4)c3c(N)ncnc32)CC1 [Compound 5]" reported=8.38
compound="COc1cc(-c2nn(CCN3CCC(N(C)C4CC4)CC3)c3ncnc(N)c23)ccc1NC(=O)OC1(C)CC1 [Compound 69]" reported=7.90
compound="CN(C)C1CCN(CCn2nc(-c3ccc(NC(=O)OC4(C)CC4)c4c3OCO4)c3c(N)ncnc32)CC1 [Compound 3]" reported=8.32
compound="COc1cc(-c2nn(CCN3CCC(N(C)C)CC3)c3ncnc(N)c23)ccc1NC(=O)OC1(C)CC1 [Compound 59]" reported=8.28

1: COc1cc(-c2nn(CCN3CCC(N(C)C)CC3)c3ncnc(N)c23)ccc1NC(=O)OC1(C)CCC1 [Compound 61]
2: COc1cc(-c2nn(CCN3CCC(N(C)C4CC4)CC3)c3ncnc(N)c23)ccc1NC(=O)OC(C)(C)C [Compound 62]
3: CN(C)C1CCN(CCn2nc(-c3ccc(NC(=O)OC(C)(C)C)c4c3OCO4)c3c(N)ncnc32)CC1 [Compound 1]
Arrange the 3 entries by pIC50 so the values rise. Answer format: the labels, in the requested order.
2, 1, 3
(2: 8.00, 1: 8.25, 3: 8.46)

###

Target: recombinant protein Src (Homo sapiens (Human), UniProt P12931)
Sequence (P12931 whole entry, looked up): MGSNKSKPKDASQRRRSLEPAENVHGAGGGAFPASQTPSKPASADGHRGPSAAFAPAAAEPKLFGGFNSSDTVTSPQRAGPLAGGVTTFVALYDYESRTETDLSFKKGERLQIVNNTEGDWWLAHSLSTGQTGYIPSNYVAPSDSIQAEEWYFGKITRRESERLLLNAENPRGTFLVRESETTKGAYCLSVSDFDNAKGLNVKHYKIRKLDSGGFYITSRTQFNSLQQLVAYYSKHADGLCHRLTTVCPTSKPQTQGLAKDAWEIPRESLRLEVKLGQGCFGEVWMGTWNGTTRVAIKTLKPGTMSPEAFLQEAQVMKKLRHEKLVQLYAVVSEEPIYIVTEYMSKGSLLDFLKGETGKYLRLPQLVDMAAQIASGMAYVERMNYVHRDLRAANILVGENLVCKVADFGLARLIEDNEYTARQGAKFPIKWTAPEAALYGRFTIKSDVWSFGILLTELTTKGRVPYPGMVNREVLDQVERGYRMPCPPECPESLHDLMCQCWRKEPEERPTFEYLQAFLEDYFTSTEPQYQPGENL
Assay: In vitro assay for inhibiting Src kinase activity (biotin-labeled TK substrate, Sa-XL 665, Cryptate-labeled antibody)
Details: read-out: IC50, inhibitory activity against recombinant protein Src
Procedure: After the compound serially diluted with DMSO and a Src recombinant protein were incubated at room temperature for 10 min, the reaction was initiated by the addition of a biotin-labeled TK substrate and ATP. […] The fluorescence values at 615 nm and 665 nm were measured, and the ratio of 665 nm to 615 nm was calculated. The inhibition percentages and IC50 of the compounds were calculated compared to the DMSO group.
Listing of recorded IC50 by entry.

compound="COc1cc(-c2nn(CCN3CCC(N(C)C)CC3)c3ncnc(N)c23)ccc1NC(=O)OC1CC1 [Compound 63]" value_kind=IC50 reported="≤ 10 nM"
compound="CN1CCC2(CC1)CCN(CCn1nc(-c3ccc(NC(=O)OC(C)(C)C)c4c3OCO4)c3c(N)ncnc31)CC2 [Compound 49]" value_kind=IC50 reported="≤ 10 nM"
compound="CN(C)C1CCN(CCn2nc(-c3ccc(NC(=O)OC45CC(C4)C5)c4c3OCO4)c3c(N)ncnc32)CC1 [Compound 7]" value_kind=IC50 reported="≤ 10 nM"

I would be grateful if you could share the reported IC50 for COc1cc(-c2nn(CCN3CCC(N(C)C)CC3)c3ncnc(N)c23)ccc1NC(=O)OC1(C)CC1 [Compound 59] .
≤ 10 nM

Value lookup for IC50; key = CN(C)C1CCN(CCn2nc(-c3ccc(NC(=O)OC4CC4)c4c3OCO4)c3c(N)ncnc32)CC1 [Compound 2]
≤ 10 nM

Recorded IC50 of COc1cc(-c2nn(CCN3CCC(N(C)C)CC3)c3ncnc(N)c23)ccc1NC(=O)OC1C2CC1C2 (stereo not shown) [Compound 64] , please.
≤ 10 nM

Which IC50 value belongs to COc1cc(-c2nn(CCN3CCC(N(C)C)CC3)c3ncnc(N)c23)ccc1NC(=O)OC1CCC1 [Compound 60] ?
≤ 10 nM

###

Experiment: In vivo pharmacokinetic experiment in CD-1 female mice
Conditions: mouse, plasma, CD-1 mice, oral administration 10 mg/kg
value_kind: half-life (h)

compound="COc1cc(-c2nn(CCN3CCC(N(C)C)CC3)c3ncnc(N)c23)ccc1NC(=O)OC(C)(C)C [Compound A, reference compound]" value_kind=half-life reported=5.7
compound=COc1cc(-c2nn(CCN3CCC(N(C)C)CC3)c3ncnc(N)c23)ccc1NC(=O)OC1(C)CC1 value_kind=half-life reported=5.3

###

The entries below come with measured IC50 values attached.
Biological target: recombinant protein Src (Homo sapiens (Human))
Test: In vitro assay for inhibiting Src kinase activity (biotin-labeled TK substrate, Sa-XL 665, Cryptate-labeled antibody)
Conditions: read-out: IC50, inhibitory activity against recombinant protein Src
Description: After the compound serially diluted with DMSO and a Src recombinant protein were incubated at room temperature for 10 min, the reaction was initiated by the addition of a biotin-labeled TK substrate and ATP. […] The fluorescence values at 615 nm and 665 nm were measured, and the ratio of 665 nm to 615 nm was calculated. The inhibition percentages and IC50 of the compounds were calculated compared to the DMSO group.

substance_smiles=CN(C)C1CCN(CCn2nc(-c3ccc(NC(=O)OC4CCCC4)c4c3OCO4)c3c(N)ncnc32)CC1 reported="10 to 50 nM"

For the compound CCOC(=O)Nc1ccc(-c2nn(CCN3CCC(N(C)C)CC3)c3ncnc(N)c23)c2c1OCO2 , what IC50 is on record?
10 to 50 nM

Look up IC50 for this compound: CN(C)C1CCN(CCn2nc(-c3ccc(NC(=O)OC4(C)CC4)c4c3OCO4)c3c(N)ncnc32)CC1
≤ 10 nM

Entry CC(C)(C)OC(=O)Nc1ccc(-c2nn(CCN3CCC(C#N)CC3)c3ncnc(N)c23)c2c1OCO2 has what IC50?
≤ 10 nM

###

Assay: In vivo pharmacokinetic experiment in CD-1 female mice
Details: mouse, plasma, iv, CD-1 mice, injection 2 mg/kg
value_kind: clearance (mL/min/kg)

a: COc1cc(-c2nn(CCN3CCC(N(C)C)CC3)c3ncnc(N)c23)ccc1NC(=O)OC1(C)CC1
b: COc1cc(-c2nn(CCN3CCC(N(C)C)CC3)c3ncnc(N)c23)ccc1NC(=O)OC(C)(C)C [Compound A, reference compound]
Of the pair a and b , name the member with the lesser recorded clearance. Answer = label.
b
